Ref: patent US20110081315A1

Would you mind telling me the reported IC50 of each entry?
Target: NS3/NS4 complexes (Hepatitis C virus genotype 1a, UniProt P27958)
Sequence (P27958 1027-1657, one chain of several): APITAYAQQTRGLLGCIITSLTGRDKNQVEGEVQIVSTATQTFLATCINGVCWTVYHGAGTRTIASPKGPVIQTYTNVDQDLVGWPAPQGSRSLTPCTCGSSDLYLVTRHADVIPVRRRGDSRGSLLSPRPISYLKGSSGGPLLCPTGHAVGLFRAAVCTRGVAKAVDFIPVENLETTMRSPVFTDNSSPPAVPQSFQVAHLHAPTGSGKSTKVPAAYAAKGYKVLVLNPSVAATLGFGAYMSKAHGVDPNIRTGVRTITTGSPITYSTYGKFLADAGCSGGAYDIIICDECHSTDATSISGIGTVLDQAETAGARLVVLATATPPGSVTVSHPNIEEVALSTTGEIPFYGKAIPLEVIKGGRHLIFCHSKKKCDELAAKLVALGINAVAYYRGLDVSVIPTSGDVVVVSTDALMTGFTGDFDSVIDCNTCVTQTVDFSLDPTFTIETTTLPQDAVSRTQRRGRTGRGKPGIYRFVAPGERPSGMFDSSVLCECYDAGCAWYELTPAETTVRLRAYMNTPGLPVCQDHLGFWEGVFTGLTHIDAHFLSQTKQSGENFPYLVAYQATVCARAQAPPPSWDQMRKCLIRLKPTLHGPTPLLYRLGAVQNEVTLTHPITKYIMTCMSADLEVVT
Experiment: NS3/NS4 inhibition assay (IC50)
Conditions: NS3/NS4 activity; 23° C., 25 μM NS4A peptide

Query: Looking for the measured IC50 of CC(C)n1c(O[C@@H]2C[C@H]3C(=O)N[C@]4(C(=O)NS(=O)(=O)N(C)C)C[C@H]4/C=C\CCCCC[C@H](NC(=O)OC(C)(C)C)C(=O)N3C2)nc2c(C(=O)NCc3ccccc3)cccc21 , can you help?
Response: < 10 nM

Query: Bench note: what IC50 did Cc1ccc(-c2csc(-c3cccc4c3nc(O[C@@H]3C[C@H]5C(=O)N[C@]6(C(=O)NS(=O)(=O)N(C)C)C[C@H]6/C=C\CCCCC[C@H](NC(=O)OC(C)(C)C)C(=O)N5C3)n4C(C)C)n2)c(C)c1 show?
Response: < 10 nM

Query: Can you share its IC50? I mean this molecule: COc1cccc2c1nc(O[C@@H]1C[C@H]3C(=O)N[C@]4(C(=O)NS(=O)(=O)C5(C)CC5)C[C@H]4/C=C\CCCCC[C@H](Nc4ccccc4)C(=O)N3C1)n2C(C)C
Response: < 10 nM

Query: I am curious: what IC50 value has been reported for CC(C)n1c(O[C@@H]2C[C@H]3C(=O)N[C@]4(C(=O)NS(=O)(=O)C5CC5)C[C@H]4/C=C\CCCCC[C@H](NC(=O)OC(C)(C)C)C(=O)N3C2)nc2c(-c3cccs3)cccc21 ?
Response: < 10 nM

Query: Consider the molecule CC(C)n1c(O[C@@H]2C[C@H]3C(=O)N[C@]4(C(=O)NS(=O)(=O)C5(C)CC5)C[C@H]4/C=C\CCCCC[C@H](NC(=O)OC4CCCC4)C(=O)N3C2)nc2c(-c3nc(-c4ccccc4)cs3)cccc21 and give its measured IC50.
Response: < 10 nM

Query: Using the record for COc1ccc2c(O[C@@H]3C[C@H]4C(=O)N[C@]5(C(=O)NS(=O)(=O)C6(C)CC6)C[C@H]5/C=C\CCCCC[C@H](Nc5cccc(C(=O)N6CCN(CCO)CC6)c5)C(=O)N4C3)cc(-c3nc(C(C)C)cs3)nc2c1C , report its IC50.
Response: < 10 nM

Query: IC50; subject: CC(C)NC(=O)c1cccc2c1nc(O[C@@H]1C[C@H]3C(=O)N[C@]4(C(=O)NS(=O)(=O)N(C)C)C[C@H]4/C=C\CCCCC[C@H](NC(=O)OC(C)(C)C)C(=O)N3C1)n2C(C)C
Response: < 10 nM

Query: Need IC50, item CC(C)n1c(O[C@@H]2C[C@H]3C(=O)N[C@]4(C(=O)NS(=O)(=O)C5(C)CC5)C[C@H]4/C=C\CCCCC[C@H](NC(=O)OC(C)(C)C)C(=O)N3C2)nc2c(-c3nc(Cc4ccccc4)cs3)cccc21
Response: < 10 nM

Query: What value of measured IC50 is listed for CNC(=O)c1cccc2c1nc(O[C@@H]1C[C@H]3C(=O)N[C@]4(C(=O)NS(=O)(=O)C5(C)CC5)C[C@H]4/C=C\CCCCC[C@H](Nc4ccccc4)C(=O)N3C1)n2C(C)C ?
Response: < 10 nM

----------
System: hepatitis C replicon
Experiment: hepatitis C replicon EC50 assay
Format: cell-based
Conditions: Hepatitis C virus
Source text: NS3-NS4 inhibition activity can be determined using known assay methods. For example, NS3/NS4 complexes may be formed and inhibitory concentrations of test compounds determined as described in U.S. Patent Application Publication Number 2007/0054842 paragraph numbers 1497-1509, which is incorporated herein by reference in its entirety. […]
pEC50: −log10 of the molar value.
reported_metric: pEC50

Query: Give the measured pEC50 of CC(C)n1c(O[C@@H]2C[C@H]3C(=O)N[C@]4(C(=O)NS(=O)(=O)N(C)C)C[C@H]4/C=C\CCCCC[C@H](NC(=O)OC(C)(C)C)C(=O)N3C2)nc2c(C(=O)NCCc3ccccc3)cccc21 .
Response: > 8.00

Query: What value of pEC50 has been recorded for this entry: CC(C)n1c(O[C@@H]2C[C@H]3C(=O)N[C@]4(C(=O)NS(=O)(=O)N(C)C)C[C@H]4/C=C\CCCCC[C@H](NC(=O)OC(C)(C)C)C(=O)N3C2)nc2c(NC(=O)NCCc3ccccc3)cccc21
Response: > 8.00

Query: Using the record for COc1ccc2c(O[C@@H]3C[C@H]4C(=O)N[C@]5(C(=O)NS(=O)(=O)C6(C)CC6)C[C@H]5/C=C\CCCCC[C@H](Nc5ccc(N)cc5)C(=O)N4C3)cc(-c3nc(C(C)C)cs3)nc2c1C , report its pEC50.
Response: 7.00 to 8.00

Query: If you can, please state the reported pEC50 value of COc1ccc2c(O[C@@H]3C[C@H]4C(=O)N[C@]5(C(=O)NS(=O)(=O)C6(C)CC6)C[C@H]5/C=C\CCCCC[C@H](Nc5cccc(N)c5)C(=O)N4C3)cc(-c3nc(C(C)C)cs3)nc2c1C .
Response: > 8.00

----------
Molecular target: NS3/NS4 complexes (Hepatitis C virus genotype 1a)
Assay: NS3/NS4 inhibition assay (IC50)
Details: NS3/NS4 activity; 23° C., 25 μM NS4A peptide
pIC50: −log10 of the molar value.
Provide the reported pIC50 of each item.

Query: Query pIC50 on NS3/NS4 complexes (Hepatitis C virus genotype 1a) for CC(C)n1c(O[C@@H]2C[C@H]3C(=O)N[C@]4(C(=O)NS(=O)(=O)N(C)C)C[C@H]4/C=C\CCCCC[C@H](NC(=O)OC(C)(C)C)C(=O)N3C2)nc2c(-c3nc(Cc4cc(F)cc(F)c4)cs3)cccc21
Response: > 8.00

Query: Field: pIC50 (NS3/NS4 complexes (Hepatitis C virus genotype 1a)). Entry: CC(C)n1c(O[C@@H]2C[C@H]3C(=O)N[C@]4(C(=O)NS(=O)(=O)C5(C)CC5)C[C@H]4/C=C\CCCCC[C@H](Nc4ccccc4)C(=O)N3C2)nc2c(-c3ccccc3F)cccc21
Response: > 8.00

Query: # get_value(readout= pIC50, system= NS3/NS4 complexes (Hepatitis C virus genotype 1a)) for CC(C)n1c(O[C@@H]2C[C@H]3C(=O)N[C@]4(C(=O)NS(=O)(=O)N(C)C)C[C@H]4/C=C\CCCCC[C@H](NC(=O)OC(C)(C)C)C(=O)N3C2)nc2c(-c3nc(-c4ccc(Cl)cc4)cs3)cccc21
Response: > 8.00

----------
Target: NS3/NS4 complexes (Hepatitis C virus genotype 1a, UniProt P27958)
Experiment: NS3/NS4 inhibition assay (IC50)
Conditions: NS3/NS4 activity; 23° C., 25 μM NS4A peptide
pIC50: −log10 of the molar value.
Give pIC50 for every item shown.

Query: Item CCCn1c(O[C@@H]2C[C@H]3C(=O)N[C@]4(C(=O)NS(=O)(=O)N(C)C)C[C@H]4/C=C\CCCCC[C@H](NC(=O)OC(C)(C)C)C(=O)N3C2)nc2ccccc21 has what recorded pIC50?
Response: > 8.00

Query: Query (molecule): CC(C)c1nc(-c2cccc3c2nc(O[C@@H]2C[C@H]4C(=O)N[C@]5(C(=O)NS(=O)(=O)N(C)C)C[C@H]5/C=C\CCCCC[C@H](NC(=O)OC(C)(C)C)C(=O)N4C2)n3C(C)C)sc1C(C)C ; field requested: pIC50
Response: > 8.00

Query: What value of measured pIC50 is listed for CCOC(=O)N1CCN(C(=O)c2cccc(N[C@H]3CCCCC/C=C\[C@@H]4C[C@@]4(C(=O)NS(=O)(=O)C4(C)CC4)NC(=O)[C@@H]4C[C@@H](Oc5cc(-c6nc(C(C)C)cs6)nc6c(C)c(OC)ccc56)CN4C3=O)c2)CC1 ?
Response: > 8.00

----------
Kindly supply the reported pEC50 values for the records listed here.
System: hepatitis C replicon
Assay: hepatitis C replicon EC50 assay
Format: cell-based
Conditions: Hepatitis C virus
pEC50: −log10 of the molar value.

Query: Could you tell me which pEC50 is on file for CC(C)n1c(O[C@@H]2C[C@H]3C(=O)N[C@]4(C(=O)NS(=O)(=O)N(C)C)C[C@H]4/C=C\CCCCC[C@H](NC(=O)OC(C)(C)C)C(=O)N3C2)nc2c(C(=O)Nc3ccccc3)cccc21 ?
Response: 7.00 to 8.00

Query: State the recorded pEC50 for this entry: CC(C)n1c(O[C@@H]2C[C@H]3C(=O)N[C@]4(C(=O)NS(=O)(=O)N(C)C)C[C@H]4/C=C\CCCCC[C@H](NC(=O)OC(C)(C)C)C(=O)N3C2)nc2c(NC(=O)Nc3ccccc3)cccc21
Response: > 8.00

Query: // query pEC50 value for entry CC(C)n1c(O[C@@H]2C[C@H]3C(=O)N[C@]4(C(=O)NS(=O)(=O)C5(C)CC5)C[C@H]4/C=C\CCCCC[C@H](Nc4ccccc4)C(=O)N3C2)nc2c(NC(=O)Nc3ccccc3)cccc21
Response: 7.00 to 8.00
